molecular target: T1, huCD4-HIS (human, UniProt P01730 26-390, limits assumed); assay: ELISA binning; competitor ibalizumab; 100 ng/mL huCD4-HIS, anti-HIS HRP; background 45, max binding 3000000
T1 construct: the ELISA is not described in the text of this stretch; also called human CD4-HIS
Listing: Ibalizumab ELISA binning signal of selected binders

| binder | Ibalizumab ELISA binning signal |
| --- | --- |
| 75110_02N15A (antibody, V domains shown, Tested as non-clonal AlivaMab Mouse Kappa hybridoma supernatant (detected with anti-mouse Fc gamma and anti-human kappa)) VH: EVQLVESGGGLVQPGGSLRLSCAASGFTFSSYWMSWVRQAPGKGLEWVANINEDGNEKYYVDSVKGRFTISRDNAKNSLFLQMNSLRAEDTAVYFCAREGGQWLALDHWGQGALVTVSS VL: DIQMTQSPSSVSASVGDRVTITCRASQGISSWLAWYQQKPGKAPKFLISGASSLQSGVPSRFSGSGSGTDFTLTISSLQPEDFATYYCQQANSFPWTFGQGTKVEFK | 1.98e+06 |
| 75110_06K03A (antibody, V domains shown, Tested as non-clonal AlivaMab Mouse Kappa hybridoma supernatant (detected with anti-mouse Fc gamma and anti-human kappa)) VH: QVQLQESGPGLVKPSETLSLTCTVSGGSISTYYWSWIRQPAGKGLEWIGRINTSGSTTYNPSLKSRVTMSVDTSKNQFSLKLSSVTAADTAVYYCARELERYYYYGMDVWGQGTTVTVSS VL: DIQMTQSPSSLSASVGDRVTITCQASQDISNYLNWYQQKPGKAPKLLIYYASILETGVPSRFSGSGSGTDFTFTISSLQPEDIATYYCQQYDSLPLTFGGGTKVEIK | 1.65e+06 |
| 75110_08D24A (antibody, V domains shown, Tested as non-clonal AlivaMab Mouse Kappa hybridoma supernatant (detected with anti-mouse Fc gamma and anti-human kappa)) VH: QVQLQESGPGLVKPSETLSLTCTVSGGSISGFYWSWIRQPAGKGLEWIGRIYTSENTNYNPSLKSRVTMSVDTSKNQFSLKLSSVTAADTAVYYCARDREGYYYYGMDVWGQGTTVTVSS VL: DIQMTQSPSSLSASVGDRVTITCQASQDISNYLNWYQQKPGKAPKLLIYAASNLETGVPSRFSGSGSGTDFTFTISSLQPEDIATYYCQQYDSLPITFGQGTRLEIK | 887000 |
| 75110_07J02A (antibody, V domains shown, Tested as non-clonal AlivaMab Mouse Kappa hybridoma supernatant (detected with anti-mouse Fc gamma and anti-human kappa)) VH: EVQLVESGGGLVQPGGSLRLSCAASGFTFSSYWMSWVRQAPGKGLEWVANIKEDGSEKYYVDSVKGRFTISRDNAKNSLYLQMNSLRAEDTAVYYCARDGSYSGYGMDVWGQGTTVTVSS VL: AIQMTQSPSSLSASVGDRVTITCRASQGIRNDLGWYQQKPGKAPKLLIYAASSLQSGVPSRFSGRGSGTDFALTISSLQPEDFATYYCLLDYNYPYTFGQGTRLEIK | 1.98e+06 |
| 75110_08G08A (antibody, V domains shown, Tested as non-clonal AlivaMab Mouse Kappa hybridoma supernatant (detected with anti-mouse Fc gamma and anti-human kappa)) VH: QVQLQESGPGLVKPSETLSLTCSVSGGSISTYYWSWIRQPAGKGLEWIGRICTTENTNYNPSLKSRVTMSIDSSKNQFSLKLSSVTAADTAVYYCARDLERLNYYGMDVWGQGATVTVSS VL: DIQMTQSPSSLSASVGDRVTITCQASQDISNYLNWYQQKPGIAPKLLIYDASNLETGVPSRFSGSGSGTDFTFTISSLQPEDIATYYCQQYDSLPITFGQGTRLEIK | 1.69e+06 |
